assay-procedure: Half life in female Balb/c mouse at 50 mg/kg, po by mass spectrometry
Assay type: ADME, organism-based
settings: in vivo
measurement-type: half-life (h)
Quick note: give the figure in h, leave out the unit.

Give the reported half-life for this compound. C/C(=N\Nc1nc(C)c[se]1)c1cccc([N+](=O)[O-])c1.Cl
1

---

measured-on: Cruzipain (Trypanosoma cruzi)
assay-procedure: Inhibition of Trypanosoma cruzi cruzain using Z-FR-AMC as substrate measured after 10 mins relative to control
The source made the active and inactive calls. The calls are words filed in the database; no cut-off is given here.
measurement-type: inhibition

Below: 5 compounds and their reported inhibition.
{"columns": ["structure-as-smiles", "measurement-type", "observed-measurement"],
 "data": [
  ["COc1ccc(/C(C)=N/Nc2nc(C)c[se]2)c(OC)c1", "inhibition", "inactive"],
  ["C/C(=N\\Nc1nc(C)c[se]1)c1ccsc1", "inhibition", "inactive"],
  ["C/C(=N\\NC(N)=S)[C@]12CC3C[C@@H](C[C@H](C3)C1)C2", "inhibition", "5.06%"],
  ["C/C(=N\\NC(N)=S)c1ccc(C#N)cc1", "inhibition", "98.8%"],
  ["C/C(=N\\Nc1nc(C)c[se]1)C12CC3CC(CC(C3)C1)C2", "inhibition", "inactive"]
]}

Now look at this one.
Please give measured inhibition of the following entry: C/C(=N\NC(N)=S)c1ccsc1
62.8%

---

assay-procedure: Selectivity index, ratio of CC50 for mouse C2C12 cells to EC50 for Trypanosoma cruzi CAI/72 intracellular amastigotes
Type: toxicity, cell-based
settings: read-out: Selectivity Index
measurement-type: selectivity ratio

# count of solved cases: 2
{"columns": ["molecule", "selectivity ratio"],
 "data": [
  ["C/C(Cc1cccc(Cl)c1)=N\\NC(N)=S", "> 3.42"],
  ["C/C(=N\\Nc1nc(C)c[se]1)c1cccc([N+](=O)[O-])c1.Cl", "> 32.5"]
]}

Turning now to a further record.
Retrieve selectivity ratio measured for COc1cccc(/C(C)=N/Nc2nc(C)c[se]2)c1 and print it.
> 3.75

---

Reported values of selectivity ratio for individual entries
assay-procedure: Selectivity index, ratio of CC50 for mouse C2C12 cells to EC50 for Trypanosoma cruzi CAI/72 intracellular amastigotes
Assay type: toxicity, cell-based
settings: read-out: Selectivity Index

As a guide, the following entries are already answered.
{"columns": ["structure-as-smiles", "observed-measurement"],
 "data": [
  ["C/C(=N\\NC(N)=[Se])c1ccc(Br)cc1", "> 13"],
  ["O=C(Cn1ccnc1[N+](=O)[O-])NCc1ccccc1", "> 6.91"],
  ["C/C(=N\\Nc1nc(C)c[se]1)c1cccc(Cl)c1", "> 19"]
]}

Look up and report measured selectivity ratio for this entry: C/C(=N\Nc1nc(C)c[se]1)c1ccsc1
> 2.68

Report measured selectivity ratio; entry is C/C(=N\NC(N)=S)c1cccc(Cl)c1
~1
